We begin with a simple list: items and their reported inhibition at 100 µM.
- assayed system: UniProt:P0C6E9
- Sequence (P0C6E9 25-781): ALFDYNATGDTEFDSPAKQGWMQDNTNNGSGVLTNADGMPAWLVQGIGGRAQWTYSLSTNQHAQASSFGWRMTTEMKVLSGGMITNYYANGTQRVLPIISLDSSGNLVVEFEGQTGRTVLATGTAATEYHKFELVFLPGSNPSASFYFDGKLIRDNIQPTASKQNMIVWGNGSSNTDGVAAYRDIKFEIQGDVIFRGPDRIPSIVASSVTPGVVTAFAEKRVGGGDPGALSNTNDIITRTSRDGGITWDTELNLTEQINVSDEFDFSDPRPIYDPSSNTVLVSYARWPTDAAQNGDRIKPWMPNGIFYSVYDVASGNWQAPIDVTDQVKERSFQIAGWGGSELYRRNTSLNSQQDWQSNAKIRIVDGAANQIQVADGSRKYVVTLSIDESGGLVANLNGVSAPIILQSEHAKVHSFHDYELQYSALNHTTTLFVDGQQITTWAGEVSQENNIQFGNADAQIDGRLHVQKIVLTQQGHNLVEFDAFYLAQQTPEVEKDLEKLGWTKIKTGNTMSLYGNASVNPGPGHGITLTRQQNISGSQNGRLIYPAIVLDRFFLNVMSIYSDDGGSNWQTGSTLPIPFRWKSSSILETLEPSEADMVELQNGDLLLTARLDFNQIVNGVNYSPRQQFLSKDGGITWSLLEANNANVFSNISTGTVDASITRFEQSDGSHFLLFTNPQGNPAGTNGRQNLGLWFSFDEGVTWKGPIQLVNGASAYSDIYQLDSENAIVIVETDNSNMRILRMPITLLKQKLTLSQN
- procedure details: biochemical
- Type: biochemical
- run conditions: read-out: Percentage inhibition, V. cholerae
Write the answer as a number in %, unit excluded.

// known answers, use as guide
smiles string: [N-]=[N+]=N[C@@H]1[C@@H](O)[C@H](F)[C@](F)(C(=O)O)O[C@H]1[C@H](O)[C@H](O)CO
parameter measured: inhibition at 100 µM
assay result: 25
--
smiles string: CC(=O)N[C@@H]1[C@@H](O)[C@H](F)[C@](F)(C(=O)O)O[C@H]1[C@H](O)[C@H](O)CO
parameter measured: inhibition at 100 µM
assay result: 97.7
--
smiles string: O=C(CO)N[C@@H]1[C@@H](O)[C@H](F)[C@](F)(C(=O)O)O[C@H]1[C@H](O)[C@H](O)CO
parameter measured: inhibition at 100 µM
assay result: 97.8
--
smiles string: CC(=O)N[C@@H]1[C@@H](O)[C@@H](F)[C@](F)(C(=O)O)O[C@H]1[C@H](O)[C@H](O)CO
parameter measured: inhibition at 100 µM
assay result: 96.8
--
smiles string: CC(=O)N[C@@H]1[C@@H](O)[C@@H](F)[C@](F)(C(=O)O)O[C@H]1[C@H](O)[C@H](O)CN=[N+]=[N-]
parameter measured: inhibition at 100 µM
assay result: 99.9

Now consider the entry below.
Q) So what's the measured inhibition at 100 µM for this one? `CC(=O)N[C@@H]1[C@@H](O)[C@H](F)[C@](F)(C(=O)O)O[C@H]1[C@H](O)[C@H](O)CN=[N+]=[N-]`
A) 99.2

###

- assayed system: SpNanB (Streptococcus pneumoniae serotype 4)
- Sequence (Q54727 30-697): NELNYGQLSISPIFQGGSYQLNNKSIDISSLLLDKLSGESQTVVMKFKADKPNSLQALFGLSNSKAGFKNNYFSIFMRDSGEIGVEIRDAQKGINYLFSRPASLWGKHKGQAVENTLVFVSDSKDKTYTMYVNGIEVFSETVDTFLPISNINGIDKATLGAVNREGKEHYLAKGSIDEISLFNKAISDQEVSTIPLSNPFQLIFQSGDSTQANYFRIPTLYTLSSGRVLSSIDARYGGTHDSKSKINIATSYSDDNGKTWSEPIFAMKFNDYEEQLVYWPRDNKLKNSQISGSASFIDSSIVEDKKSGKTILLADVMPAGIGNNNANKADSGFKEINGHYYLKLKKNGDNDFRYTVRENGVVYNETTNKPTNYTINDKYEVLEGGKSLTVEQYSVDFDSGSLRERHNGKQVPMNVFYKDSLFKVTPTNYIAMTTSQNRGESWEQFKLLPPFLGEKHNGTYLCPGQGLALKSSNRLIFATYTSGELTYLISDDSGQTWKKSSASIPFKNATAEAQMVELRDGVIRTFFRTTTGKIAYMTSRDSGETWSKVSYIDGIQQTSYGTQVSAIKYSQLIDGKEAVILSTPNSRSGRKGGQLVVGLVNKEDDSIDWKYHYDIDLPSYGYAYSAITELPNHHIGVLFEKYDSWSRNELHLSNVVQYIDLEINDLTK
- procedure details: biochemical
- run conditions: read-out: Percentage inhibition, SpNanB
We begin with a simple list: items and their reported inhibition at 1000 µM.
Write the answer as a number in %, unit excluded.

// known answers, use as guide
smiles string: O=C(CO)N[C@@H]1[C@@H](O)[C@H](F)[C@](F)(C(=O)O)O[C@H]1[C@H](O)[C@H](O)CO
assay result: 26

smiles string: [N-]=[N+]=N[C@@H]1[C@@H](O)[C@H](F)[C@](F)(C(=O)O)O[C@H]1[C@H](O)[C@H](O)CO
assay result: 38

smiles string: CC(=O)N[C@@H]1[C@@H](O)[C@@H](F)[C@](F)(C(=O)O)O[C@H]1[C@H](O)[C@H](O)CN=[N+]=[N-]
assay result: 43.8

smiles string: CC(=O)N[C@@H]1[C@@H](O)[C@@H](F)[C@](F)(C(=O)O)O[C@H]1[C@H](O)[C@H](O)CO
assay result: 19

smiles string: CC(=O)N[C@@H]1[C@@H](O)[C@H](F)[C@](F)(C(=O)O)O[C@H]1[C@H](O)[C@H](O)CO
assay result: 30.2

Now consider the entry below.
Q) So what's the measured inhibition at 1000 µM for this one? `CC(=O)N[C@@H]1[C@@H](O)[C@H](F)[C@](F)(C(=O)O)O[C@H]1[C@H](O)[C@H](O)CN=[N+]=[N-]`
A) 51.9

###

- assayed system: BiNanH2 (Bifidobacterium longum subsp. infantis, UniProt A0ACD7UU12)
- procedure details: biochemical
- Format: biochemical, Bifidobacterium longum subsp. infantis ATCC15697
- run conditions: read-out: Percentage inhibition, BiNanH2
parameter measured: inhibition at 100 µM
Report field: quantity (unit follows the number).

// known answers, use as guide
smiles string: O=C(CO)N[C@@H]1[C@@H](O)[C@H](F)[C@](F)(C(=O)O)O[C@H]1[C@H](O)[C@H](O)CO
assayed system: BiNanH2 (Bifidobacterium longum subsp. infantis, UniProt A0ACD7UU12)
parameter measured: inhibition at 100 µM
assay result: 87.3%
--
smiles string: [N-]=[N+]=N[C@@H]1[C@@H](O)[C@H](F)[C@](F)(C(=O)O)O[C@H]1[C@H](O)[C@H](O)CO
assayed system: BiNanH2 (Bifidobacterium longum subsp. infantis, UniProt A0ACD7UU12)
parameter measured: inhibition at 100 µM
assay result: 40.8%
--
smiles string: CC(=O)N[C@@H]1[C@@H](O)[C@H](F)[C@](F)(C(=O)O)O[C@H]1[C@H](O)[C@H](O)CN=[N+]=[N-]
assayed system: BiNanH2 (Bifidobacterium longum subsp. infantis, UniProt A0ACD7UU12)
parameter measured: inhibition at 100 µM
assay result: 98.9%

Q) So what's the measured inhibition at 100 µM for this one? `CC(=O)N[C@@H]1[C@@H](O)[C@@H](F)[C@](F)(C(=O)O)O[C@H]1[C@H](O)[C@H](O)CN=[N+]=[N-]`
A) 98.8%

Q) So what's the measured inhibition at 100 µM for this one? `CC(=O)N[C@@H]1[C@@H](O)[C@@H](F)[C@](F)(C(=O)O)O[C@H]1[C@H](O)[C@H](O)CO`
A) 98.9%

Q) So what's the measured inhibition at 100 µM for this one? `CC(=O)N[C@@H]1[C@@H](O)[C@H](F)[C@](F)(C(=O)O)O[C@H]1[C@H](O)[C@H](O)CO`
A) 95.4%
